- Test system: HCT-116
- Experiment description: Growth inhibition of human HCT116 cells assessed as cell growth at 10^-6 M by sulforhodamine B assay
- Assay type: functional
- Assay setup: read-out: Activity
Metric name: growth at 1 µM

Completed entries (count: 3):
# Molecule smiles, Metric name, Result
data = [
    ("CC1(C)C[C@@H](O)[C@]2(C(=O)O)CC[C@]3(C)C(=CC[C@@H]4[C@@]5(C)C/C(=C\\C=C\\c6ccccc6)C(=O)C(C)(C)[C@@H]5CC[C@]43C)[C@@H]2C1", "growth at 1 µM", "90%"),
    ("CC(C)=CC(=O)O[C@@H]1CC(C)(C)C[C@H]2C3=CC[C@@H]4[C@@]5(C)CC[C@H](O)C(C)(C)[C@@H]5CC[C@@]4(C)[C@]3(C)CC[C@@]12C(=O)O", "growth at 1 µM", "72%"),
    ("C/C=C(/C)C(=O)O[C@@H]1CC(C)(C)C[C@H]2C3=CC[C@@H]4[C@@]5(C)CCC(=O)C(C)(C)[C@@H]5CC[C@@]4(C)[C@]3(C)CC[C@@]12C(=O)O", "growth at 1 µM", "86%"),
]

Lab book: growth at 1 µM of C/C=C(/C)C(=O)O[C@@H]1CC(C)(C)C[C@H]2C3=CC[C@@H]4[C@@]5(C)CC[C@H](O)C(C)(C)[C@@H]5CC[C@@]4(C)[C@]3(C)CC[C@@]12C(=O)O noted as 82%

###

- Test system: Malme-3M
- Experiment description: Growth inhibition of human MALME-3M cells by sulforhodamine B assay
- Assay type: functional
- Assay setup: read-out: pLC50 (the source's name) (converted)
Metric name: CC50

Check out these entries, answers already filled in.
# Molecule smiles, CC50
data = [
    ("CC(C)=CC(=O)O[C@@H]1CC(C)(C)C[C@H]2C3=CC[C@@H]4[C@@]5(C)CCC(=O)C(C)(C)[C@@H]5CC[C@@]4(C)[C@]3(C)CC[C@@]12C(=O)O", "> 100 µM"),
    ("C/C=C(/C)C(=O)O[C@@H]1CC(C)(C)C[C@H]2C3=CC[C@@H]4[C@@]5(C)CCC(=O)C(C)(C)[C@@H]5CC[C@@]4(C)[C@]3(C)CC[C@@]12C(=O)O", "> 100 µM"),
]

API: the following record is the query input.
Record CC(C)=CC(=O)O[C@@H]1CC(C)(C)C[C@H]2C3=CC[C@@H]4[C@@]5(C)CC[C@H](O)C(C)(C)[C@@H]5CC[C@@]4(C)[C@]3(C)CC[C@@]12C(=O)O . Reported CC50: > 100 µM

###

Quick reference: LC50 of the listed items.
- Test system: NCI-H460
- Experiment description: Growth inhibition of human NCI-H460 cells by sulforhodamine B assay
- Format: functional
- Assay setup: read-out: LC50

# Compound, LC50
data = [
    ("C/C=C(/C)C(=O)O[C@@H]1CC(C)(C)C[C@H]2C3=CC[C@@H]4[C@@]5(C)CCC(=O)C(C)(C)[C@@H]5CC[C@@]4(C)[C@]3(C)CC[C@@]12C(=O)O [LANTADENE A]", "> 100 µM"),
    ("C/C=C(/C)C(=O)O[C@@H]1CC(C)(C)C[C@H]2C3=CC[C@@H]4[C@@]5(C)CC[C@H](O)C(C)(C)[C@@H]5CC[C@@]4(C)[C@]3(C)CC[C@@]12C(=O)O [Reduced Lantadene A]", "> 100 µM"),
]

Turning now to a further record.
GET /value?item= CC(C)=CC(=O)O[C@@H]1CC(C)(C)C[C@H]2C3=CC[C@@H]4[C@@]5(C)CC[C@H](O)C(C)(C)[C@@H]5CC[C@@]4(C)[C@]3(C)CC[C@@]12C(=O)O [Reduced Lantadene B] &field=LC50 returns > 100 µM
